assay: Tmax in human at 400 mg, po bid on day 1 and 200 mg, po bid on day 2 and 3 followed by 7 days of washout period then treated with ritonavir 100 mg, po for 10 days followed by 200 mg, po of drug coadministered with 100 mg, po ritonavir till day 30; format: ADME, organism-based; conditions: in vivo
Measured Metric: Tmax (h)
I only need the number, in h, no unit after it.

Briefly, Tmax measured for `C[C@@H](c1ncncc1F)[C@](O)(Cn1cncn1)c1ccc(F)cc1F` : 1.5

###

experiment: Tmax in human at 100 mg, po bid from day 11 to day 20 pretreated with voriconazole 400 mg, po bid on day 1 and 200 mg, po bid on day 2 and 3 followed by washout from day 4 to day 10 followed by 100 mg, po of drug coadministered with voriconazole 200 mg, po from day 21 to day 30; format: ADME, organism-based; settings: in vivo
Measured Metric: Tmax

Briefly, Tmax measured for `CC(C)c1nc(CN(C)C(=O)N[C@H](C(=O)N[C@@H](Cc2ccccc2)C[C@H](O)[C@H](Cc2ccccc2)NC(=O)OCc2cncs2)C(C)C)cs1` : 3 h

###

assay: Tmax in human at 400 mg, po bid from day 11 to day 20 pretreated with voriconazole 400 mg, po bid on day 1 and 200 mg, po bid on day 2 and 3 followed by washout from day 4 to day 10 followed by 400 mg, po of drug coadministered with voriconazole 200 mg, po from day 21 to day 30; format: ADME, organism-based; conditions: in vivo
Measured Metric: Tmax
Show the value, then the unit it is measured in.

Briefly, Tmax measured for `CC(C)c1nc(CN(C)C(=O)N[C@H](C(=O)N[C@@H](Cc2ccccc2)C[C@H](O)[C@H](Cc2ccccc2)NC(=O)OCc2cncs2)C(C)C)cs1` : 1 h

###

assay: Cmax in human at 400 mg, po bid on day 1 and 200 mg, po bid on day 2 and 3 measured after 3 days; format: ADME, organism-based; design: dose 400 mg, route oral; details: in vivo
Measured Metric: Cmax (ng/mL)
I only need the number, in ng/mL, no unit after it.

Briefly, Cmax measured for `C[C@@H](c1ncncc1F)[C@](O)(Cn1cncn1)c1ccc(F)cc1F` : 3360

###

test: Tmax in human at 400 mg, po bid from day 11 to day 20 pretreated with placebo from day 1 to day 3 followed by washout from day 4 to day 10 followed by 400 mg, po of drug coadministered with placebo from day 21 to day 30; type: ADME, organism-based; conditions: in vivo
Measured Metric: Tmax (h)
I only need the number, in h, no unit after it.

Briefly, Tmax measured for CC(C)c1nc(CN(C)C(=O)N[C@H](C(=O)N[C@@H](Cc2ccccc2)C[C@H](O)[C@H](Cc2ccccc2)NC(=O)OCc2cncs2)C(C)C)cs1 [RITONAVIR] : 1

###

assay: AUC (0 to 12 hrs) in human at 400 mg, po bid from day 11 to day 20 pretreated with placebo from day 1 to day 3 followed by washout from day 4 to day 10; type: ADME, organism-based; parameters: dose 400 mg, time < 12 hr, route oral; conditions: plasma
Measured Metric: AUC at 12 h
Show the value, then the unit it is measured in.

Briefly, AUC at 12 h measured for `CC(C)c1nc(CN(C)C(=O)N[C@H](C(=O)N[C@@H](Cc2ccccc2)C[C@H](O)[C@H](Cc2ccccc2)NC(=O)OCc2cncs2)C(C)C)cs1` : 65300 ng·h/mL
